# TARGET_UNDER_TEST: α1(L264T)β3γ2 GABAA receptors (Homo sapiens, UniProt P14867+P28472, L291T)
# Sequence (P14867 28-456 L291T): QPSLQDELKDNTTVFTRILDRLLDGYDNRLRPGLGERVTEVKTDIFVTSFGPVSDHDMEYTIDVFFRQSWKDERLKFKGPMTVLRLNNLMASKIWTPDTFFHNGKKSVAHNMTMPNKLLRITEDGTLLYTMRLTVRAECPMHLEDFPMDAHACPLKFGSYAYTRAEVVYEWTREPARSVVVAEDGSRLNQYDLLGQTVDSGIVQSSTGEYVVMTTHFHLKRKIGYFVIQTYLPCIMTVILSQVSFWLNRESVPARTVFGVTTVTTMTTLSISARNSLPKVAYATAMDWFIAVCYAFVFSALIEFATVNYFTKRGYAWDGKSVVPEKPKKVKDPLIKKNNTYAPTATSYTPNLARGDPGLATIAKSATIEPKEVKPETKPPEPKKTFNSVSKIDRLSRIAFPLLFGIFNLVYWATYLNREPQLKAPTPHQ
# Sequence (P28472 26-473): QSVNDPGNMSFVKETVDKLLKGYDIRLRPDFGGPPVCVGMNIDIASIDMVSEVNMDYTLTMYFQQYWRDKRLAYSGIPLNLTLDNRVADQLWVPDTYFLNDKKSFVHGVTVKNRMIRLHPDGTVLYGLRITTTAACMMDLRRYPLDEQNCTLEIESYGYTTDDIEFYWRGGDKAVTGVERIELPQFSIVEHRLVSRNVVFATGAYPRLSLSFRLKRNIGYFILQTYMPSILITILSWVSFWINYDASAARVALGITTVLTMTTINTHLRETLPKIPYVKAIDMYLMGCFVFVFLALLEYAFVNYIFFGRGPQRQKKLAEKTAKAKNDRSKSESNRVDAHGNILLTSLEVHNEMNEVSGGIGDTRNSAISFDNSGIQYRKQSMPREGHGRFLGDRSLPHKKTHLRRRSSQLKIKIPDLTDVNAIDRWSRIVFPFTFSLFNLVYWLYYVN
# Sequence (P18507 40-475 partner): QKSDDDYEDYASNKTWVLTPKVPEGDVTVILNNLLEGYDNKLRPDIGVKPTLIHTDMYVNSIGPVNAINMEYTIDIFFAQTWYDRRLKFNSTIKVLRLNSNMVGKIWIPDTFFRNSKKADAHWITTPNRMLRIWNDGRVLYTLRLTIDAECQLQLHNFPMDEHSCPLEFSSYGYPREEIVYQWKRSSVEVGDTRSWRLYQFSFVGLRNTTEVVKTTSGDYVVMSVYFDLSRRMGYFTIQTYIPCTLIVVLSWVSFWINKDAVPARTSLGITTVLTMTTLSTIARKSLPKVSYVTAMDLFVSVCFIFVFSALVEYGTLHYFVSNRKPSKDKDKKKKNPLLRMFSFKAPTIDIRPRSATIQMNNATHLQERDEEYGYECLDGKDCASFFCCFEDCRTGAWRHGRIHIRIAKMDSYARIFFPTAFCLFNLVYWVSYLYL
PROPERTY_NAME: pEC50
Scale: negative log10 of molar concentration, which is what pEC50 denotes.

query: Requested field: pEC50. Item: COC(=O)c1cncn1C(C)c1ccccc1 (stereo not shown) [Compound 2, Metomidate, reference compound]
result: 5.36

Source listed as paper PMC4803471.
